System: MBP-CjCgtBΔ30-His6
Test: Effects of divalent metal cations, EDTA and DTT on enzyme activity
Type: biochemical, Campylobacter jejuni
Conditions: pH 7.5, Tris-HCl buffer (100 mM); DTT 10 mM
measured.attribute: effect on the enzyme activity of MBP-CjCgtBΔ30-His6

# molecule, result
data = [
    ("[Ca+2] [Ca^2+]", "not"),
]

Measured values drawn from patent US20260258378A1 for this set.
